Origin of values: patent US20180057505A1

Molecular target: PAR2 (HT-29 cells) (Homo sapiens, UniProt P55085)
Construct: host or cells: HT-29
Experiment: Ca FLIPR TETRA assay, ANTAGONIST mode, activator 8 μM SLIGKV
Assay type: cell-based
Conditions: HT-29 cells, activator 8 μM SLIGKV; maximal antagonist concentration per Method (A: 0.1, 1 or 2 μM; B: 50 μM)
pIC50: −log10 of the molar value.
pIC50 values for the compounds below.
endpoint: pIC50

* CC1(c2cc(-c3ccc(F)cc3)nc3cc(C(=O)N4CCN(C(=O)[C@H](O)Cc5ccccc5)CC4(C)C)oc23)CC1 | 8.19
* CC(C)(C)c1cc(-c2ccc(Cl)c(F)c2)nc2cc(C(=O)N3CCN(c4cn[nH]c4)C(=O)C3(C)C)oc12 | 8.48
* CC(C)(C)CC(O)C(=O)N1CCN(C(=O)c2cc3nc(-c4ccc(F)cc4)cc(C4(C)CC4)c3o2)C(C)(C)C1 (stereo not shown) | 8.46
* CC(C)(C)c1cc(-c2ccc(Cl)cc2)nc2cc(C(=O)N3CCNC(=O)C3(C)C)oc12 [Example I-153] | 8.31
* CN1CCN(C(=O)c2cc3nc(-c4ccc(F)cc4)cc(C(C)(C)C)c3o2)C(C)(C)C1=O | 8.40
* CCc1cc(-c2ccc(F)cc2)nc2cc(C(=O)N3CCN(C(=O)[C@H]4C[C@](O)(C(F)(F)F)C4)CC3(C)C)oc12 | 8.96
* Cc1cc(N2CCN(C(=O)c3cc4nc(-c5ccc(Cl)c(F)c5)cc(C(C)(C)C)c4o3)C(C)(C)C2=O)[nH]n1 | 7.89

---

Target: PAR2 (HT-29 cells) (Homo sapiens, UniProt P55085)
Construct: host or cells: HT-29
Sequence (P55085 26-397): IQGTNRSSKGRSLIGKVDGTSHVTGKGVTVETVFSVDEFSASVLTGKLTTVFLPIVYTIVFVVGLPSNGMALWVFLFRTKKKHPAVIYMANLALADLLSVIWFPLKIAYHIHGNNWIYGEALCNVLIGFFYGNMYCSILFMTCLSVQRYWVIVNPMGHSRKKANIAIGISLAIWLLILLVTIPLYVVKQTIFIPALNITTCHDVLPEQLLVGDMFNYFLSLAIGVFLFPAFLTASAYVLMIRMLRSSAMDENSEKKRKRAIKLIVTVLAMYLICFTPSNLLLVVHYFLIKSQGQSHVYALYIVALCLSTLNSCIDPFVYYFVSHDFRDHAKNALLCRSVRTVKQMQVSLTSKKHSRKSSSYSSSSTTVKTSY
Assay: Ca FLIPR TETRA assay, ANTAGONIST mode, activator 3.1 U/mL trypsin
Assay type: cell-based
Conditions: HT-29 cells; activator 3.1 U/mL trypsin; Method A: maximal concentration of antagonist 0.1, 1 or 2 μM
endpoint: IC50 (nM)

- CC(C)(CCC(=O)N1CCN(C(=O)c2cc3nc(-c4ccc(Cl)cc4)cc(C(C)(C)C)c3o2)C(C)(C)C1)C(=O)O [Example I-366]: 1.1
- CC(C)(C)c1cc(C2CCC(F)(F)CC2)nc2cc(C(=O)N3CCN(C(=O)c4nnc[nH]4)CC3(C)C)oc12 [Example I-311]: 83
- CC(C)(C)c1cc(-c2ccc(Cl)c(F)c2)nc2cc(C(=O)N3CCN(C(=O)[C@H]4CCS(=O)(=O)N4)CC3(C)C)oc12 [Example I-473]: 27.7
